// provenance: patent US20200017496A1

Assay: Mouse oral bioavailability determination, CEFIXIME/Example 3 combination (Method 4)
Design: species or system Swiss Mouse
Conditions: male, Swiss; Mouse; intravenous 30 mg/kg; AF1 titrated in plasma; read-out: AUC0-∞
property: AUC(0-inf) (ng·h/mL)
Just the number please, in ng·h/mL, no unit attached.

Recorded AUC(0-inf) (molecule NC(=O)[C@@H]1CC[C@@H]2CN1C(=O)N2OC(F)(F)C(=O)[O-].[Na+] ): 11200

* * *

Test system: Serratia marcescens (SMA) isolates
Experiment: MIC of compounds alone and combined with antibacterials, broth microdilution (CLSI)
Assay type: cell-based
Settings: SMA UFR138; AF1 @ 4 μg/mL
Procedure: Method 2: MIC of Compounds Alone and Combined with Antibacterials Against Bacterial Isolates. Compounds of the present invention were assessed against genotyped bacterial strains (Table 3, 4) alone or in combination with an antibacterial (Table 2). […] The MIC of the compounds was defined as the lowest concentration of said compounds that prevented bacterial growth as read by visual inspection. […]
property: MIC ATB in combination (µg/mL)
Just the number please, in µg/mL, no unit attached.

Recorded MIC ATB in combination (compound CO/N=C(\C(=O)N[C@@H]1C(=O)N2C(C(=O)O)=C(COC(N)=O)CS[C@H]12)c1ccco1 ): 64

Recorded MIC ATB in combination (compound COCC1=C(C(=O)O)N2C(=O)[C@@H](NC(=O)/C(=N\OC)c3csc(N)n3)[C@H]2SC1 ): 0.5

Recorded MIC ATB in combination (compound CC1(C)S[C@@H]2[C@H](NC(=O)[C@H](N)c3ccc(O)cc3)C(=O)N2[C@H]1C(=O)O ): 64

Recorded MIC ATB in combination (compound C=CC1=C(C(=O)O)N2C(=O)[C@@H](NC(=O)/C(=N\O)c3csc(N)n3)[C@H]2SC1 ): 4

* * *

System: Escherichia coli (ECO) isolates
Test: MIC of compounds alone and combined with antibacterials, broth microdilution (CLSI)
Format: cell-based
Conditions: ECO UFR16; AF1 @ 4 μg/mL
property: MIC ATB in combination

Reference set (4 entries):
CO/N=C(\C(=O)N[C@@H]1C(=O)N2C(C(=O)O)=C(COC(N)=O)CS[C@H]12)c1ccco1	16 µg/mL
CC(C)(O/N=C(\C(=O)N[C@@H]1C(=O)N2C(C(=O)[O-])=C(C[n+]3ccccc3)CS[C@H]12)c1csc(N)n1)C(=O)O	<=0.25 μg/mL
C=CC1=C(C(=O)O)N2C(=O)[C@@H](NC(=O)/C(=N\OCC(=O)O)c3csc(N)n3)[C@H]2SC1	<=0.25 μg/mL
COCC1=C(C(=O)O)N2C(=O)[C@@H](NC(=O)/C(=N\OC)c3csc(N)n3)[C@H]2SC1	1 µg/mL

Now examine the next entry.
Recorded MIC ATB in combination (compound C=CC1=C(C(=O)O)N2C(=O)[C@@H](NC(=O)/C(=N\O)c3csc(N)n3)[C@H]2SC1 ): 1 µg/mL

* * *

Test system: Enterobacter aerogenes (EAE) isolates
Assay: MIC of compounds alone and combined with antibacterials, broth microdilution (CLSI)
Assay type: cell-based
Conditions: EAE UFR199; AF1 @ 4 μg/mL
Answer each item with its documented MIC ATB in combination.
Just the number please, in µg/mL, no unit attached.

Recorded MIC ATB in combination (compound C=CC1=C(C(=O)O)N2C(=O)[C@@H](NC(=O)/C(=N\O)c3csc(N)n3)[C@H]2SC1 [CDR, Cefdinir] ): 1

Recorded MIC ATB in combination (compound CO/N=C(\C(=O)N[C@@H]1C(=O)N2C(C(=O)O)=C(COC(N)=O)CS[C@H]12)c1ccco1 [FUR, Cefuroxime] ): 8

Recorded MIC ATB in combination (compound CC1(C)S[C@@H]2[C@H](NC(=O)[C@H](N)c3ccc(O)cc3)C(=O)N2[C@H]1C(=O)O [AMX, Amoxicillin] ): 64

Recorded MIC ATB in combination (compound CC(C)(O/N=C(\C(=O)N[C@@H]1C(=O)N2C(C(=O)[O-])=C(C[n+]3ccccc3)CS[C@H]12)c1csc(N)n1)C(=O)O [CAZ, Ceftazidime] ): 1

Recorded MIC ATB in combination (compound C=CC1=C(C(=O)O)N2C(=O)[C@@H](NC(=O)/C(=N\OCC(=O)O)c3csc(N)n3)[C@H]2SC1 [FIX, Cefixime] ): 1

Recorded MIC ATB in combination (compound COCC1=C(C(=O)O)N2C(=O)[C@@H](NC(=O)/C(=N\OC)c3csc(N)n3)[C@H]2SC1 [POD, Cefpodoxime] ): 1

* * *

Test system: Enterobacter aerogenes (EAE) isolates
Test: MIC of compounds alone and combined with antibacterials, broth microdilution (CLSI)
Assay type: cell-based
Settings: EAE 200261; AF1 @ 4 μg/mL
Answer each item with its documented MIC ATB in combination.
Just the number please, in µg/mL, no unit attached.

Recorded MIC ATB in combination (compound CO/N=C(\C(=O)N[C@@H]1C(=O)N2C(C(=O)O)=C(COC(N)=O)CS[C@H]12)c1ccco1 ): 64

Recorded MIC ATB in combination (compound CC(C)(O/N=C(\C(=O)N[C@@H]1C(=O)N2C(C(=O)[O-])=C(C[n+]3ccccc3)CS[C@H]12)c1csc(N)n1)C(=O)O ): 2

Recorded MIC ATB in combination (compound COCC1=C(C(=O)O)N2C(=O)[C@@H](NC(=O)/C(=N\OC)c3csc(N)n3)[C@H]2SC1 ): 4

Recorded MIC ATB in combination (compound C=CC1=C(C(=O)O)N2C(=O)[C@@H](NC(=O)/C(=N\OCC(=O)O)c3csc(N)n3)[C@H]2SC1 ): 32

Recorded MIC ATB in combination (compound C=CC1=C(C(=O)O)N2C(=O)[C@@H](NC(=O)/C(=N\O)c3csc(N)n3)[C@H]2SC1 ): 8

* * *

Test system: Escherichia coli (ECO) isolates
Experiment: MIC of compounds alone and combined with antibacterials, broth microdilution (CLSI)
Assay type: cell-based
Conditions: ECO UFR61O; AF1 @ 4 μg/mL
property: MIC ATB in combination (µg/mL)
Just the number please, in µg/mL, no unit attached.

Recorded MIC ATB in combination (compound CC(C)(O/N=C(\C(=O)N[C@@H]1C(=O)N2C(C(=O)[O-])=C(C[n+]3ccccc3)CS[C@H]12)c1csc(N)n1)C(=O)O ): 2

Recorded MIC ATB in combination (compound CC1(C)S[C@@H]2[C@H](NC(=O)[C@H](N)c3ccc(O)cc3)C(=O)N2[C@H]1C(=O)O ): 64

Recorded MIC ATB in combination (compound COCC1=C(C(=O)O)N2C(=O)[C@@H](NC(=O)/C(=N\OC)c3csc(N)n3)[C@H]2SC1 ): 0.5

Recorded MIC ATB in combination (compound CO/N=C(\C(=O)N[C@@H]1C(=O)N2C(C(=O)O)=C(COC(N)=O)CS[C@H]12)c1ccco1 ): 8

Recorded MIC ATB in combination (compound C=CC1=C(C(=O)O)N2C(=O)[C@@H](NC(=O)/C(=N\OCC(=O)O)c3csc(N)n3)[C@H]2SC1 ): 0.25

Recorded MIC ATB in combination (compound C=CC1=C(C(=O)O)N2C(=O)[C@@H](NC(=O)/C(=N\O)c3csc(N)n3)[C@H]2SC1 ): 0.25

* * *

Test system: Klebsiella pneumoniae (KPN) isolates
Assay: MIC of compounds alone and combined with antibacterials, broth microdilution (CLSI)
Assay type: cell-based
Conditions: KPN UFR25; AF1 @ 4 μg/mL
Answer each item with its documented MIC ATB in combination.
Just the number please, in µg/mL, no unit attached.

Recorded MIC ATB in combination (molecule CC1(C)S[C@@H]2[C@H](NC(=O)[C@H](N)c3ccc(O)cc3)C(=O)N2[C@H]1C(=O)O ): 512

Recorded MIC ATB in combination (molecule CC(C)(O/N=C(\C(=O)N[C@@H]1C(=O)N2C(C(=O)[O-])=C(C[n+]3ccccc3)CS[C@H]12)c1csc(N)n1)C(=O)O ): 0.5

Recorded MIC ATB in combination (molecule CO/N=C(\C(=O)N[C@@H]1C(=O)N2C(C(=O)O)=C(COC(N)=O)CS[C@H]12)c1ccco1 ): 4

* * *

Answer each item with its documented IC50.
Target: OXA-58 (Acinetobacter baumannii)
Sequence (Q2TR58 19-280, species assumed): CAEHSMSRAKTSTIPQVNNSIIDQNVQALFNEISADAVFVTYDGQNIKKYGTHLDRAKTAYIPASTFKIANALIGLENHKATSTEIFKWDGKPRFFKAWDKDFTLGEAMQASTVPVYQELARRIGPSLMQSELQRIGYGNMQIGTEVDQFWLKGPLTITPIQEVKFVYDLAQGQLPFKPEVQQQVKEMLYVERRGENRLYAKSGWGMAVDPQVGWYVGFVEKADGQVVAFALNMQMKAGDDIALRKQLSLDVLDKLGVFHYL
Assay: β-lactamase inhibitory activity, IC50 (nitrocefin hydrolysis)
Just the number please, in µM, no unit attached.

Recorded IC50 (molecule N#C[C@@H]1CC[C@@H]2CN1C(=O)N2OC(F)(F)C(=O)[O-].[Na+] [AF2] ): 0.0021

Recorded IC50 (molecule NC(=O)[C@@H]1CC[C@@H]2CN1C(=O)N2OC(F)(F)C(=O)[O-].[Na+] [AF1] ): 0.4

* * *

property: pIC50
// returns pIC50 (minus log10 of molar concentration), number only

Log: OXA-40 (Acinetobacter baumannii, UniProt Q8RLA6), compound NC(=O)[C@@H]1CC[C@@H]2CN1C(=O)N2OC(F)(F)C(=O)[O-].[Na+] , pIC50 = 5.68

Log: OXA-40 (Acinetobacter baumannii, UniProt Q8RLA6), compound N#C[C@@H]1CC[C@@H]2CN1C(=O)N2OC(F)(F)C(=O)[O-].[Na+] , pIC50 = 7.92
